B1: TPR t1 (parent)
chain: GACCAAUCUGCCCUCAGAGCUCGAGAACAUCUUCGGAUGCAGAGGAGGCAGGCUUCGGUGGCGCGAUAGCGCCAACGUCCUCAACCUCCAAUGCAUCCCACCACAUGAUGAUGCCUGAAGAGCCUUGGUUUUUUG

- Variants of: B1
- Run Description: polymerase ribozyme fitness, log enrichment relative to wild type (log ratio); higher = more active; in vitro selection for triplet polymerase activity
Please enter Y where polymerase ribozyme fitness (log ratio) is greater than or equal to -0.8, and N where it is lower.

Request: Please check the record C8A A41U C49G G61A U81C A100U and state if its polymerase ribozyme fitness (log ratio) is at or above -0.8.
Response: N

Request: Please check the record G19A A41U C62U C94U and state if its polymerase ribozyme fitness (log ratio) is at or above -0.8.
Response: N

Request: Please check the record G44A G69C and state if its polymerase ribozyme fitness (log ratio) is at or above -0.8.
Response: N

Request: Please check the record C3A U78C U87C C102U C124G U131A and state if its polymerase ribozyme fitness (log ratio) is at or above -0.8.
Response: Y

Request: Please check the record G120A U130C and state if its polymerase ribozyme fitness (log ratio) is at or above -0.8.
Response: Y

Request: Please check the record G45A G69U C99U A111G and state if its polymerase ribozyme fitness (log ratio) is at or above -0.8.
Response: Y

Request: Please check the record C20U G52A and state if its polymerase ribozyme fitness (log ratio) is at or above -0.8.
Response: Y

Request: Please check the record A84G and state if its polymerase ribozyme fitness (log ratio) is at or above -0.8.
Response: Y

Request: Please check the record C64U A83U and state if its polymerase ribozyme fitness (log ratio) is at or above -0.8.
Response: Y

Request: Please check the record C40U C53G and state if its polymerase ribozyme fitness (log ratio) is at or above -0.8.
Response: Y

Request: Please check the record C22U C72G C124U and state if its polymerase ribozyme fitness (log ratio) is at or above -0.8.
Response: N

Request: Please check the record C12A C34A G45A G71C and state if its polymerase ribozyme fitness (log ratio) is at or above -0.8.
Response: N

Request: Please check the record G63U G93A and state if its polymerase ribozyme fitness (log ratio) is at or above -0.8.
Response: N

Request: Please check the record C28G U54G C62U and state if its polymerase ribozyme fitness (log ratio) is at or above -0.8.
Response: N

Request: Please check the record G57U U78G C114U A118U and state if its polymerase ribozyme fitness (log ratio) is at or above -0.8.
Response: N

Request: Please check the record C15U U54C C73U G113A C124G and state if its polymerase ribozyme fitness (log ratio) is at or above -0.8.
Response: Y

Request: Please check the record C13G G69C C94U C115U G135A and state if its polymerase ribozyme fitness (log ratio) is at or above -0.8.
Response: N

Request: Please check the record C12U C13U C89U U133G and state if its polymerase ribozyme fitness (log ratio) is at or above -0.8.
Response: Y

Request: Please check the record A6C C73U C85A C114U and state if its polymerase ribozyme fitness (log ratio) is at or above -0.8.
Response: N

Request: Please check the record A26U G48U and state if its polymerase ribozyme fitness (log ratio) is at or above -0.8.
Response: N

Request: Please check the record C15G C70U C82G C88A and state if its polymerase ribozyme fitness (log ratio) is at or above -0.8.
Response: N

Request: Please check the record A26G G45A U78G C124U U129G and state if its polymerase ribozyme fitness (log ratio) is at or above -0.8.
Response: N

Request: Please check the record A26U G71A C82U and state if its polymerase ribozyme fitness (log ratio) is at or above -0.8.
Response: N

Request: Please check the record G19C A41U G71A C88G C89U C104A C124U and state if its polymerase ribozyme fitness (log ratio) is at or above -0.8.
Response: N

Request: Please check the record A90U G93A U112C and state if its polymerase ribozyme fitness (log ratio) is at or above -0.8.
Response: Y

Request: Please check the record G77U C114G A121C and state if its polymerase ribozyme fitness (log ratio) is at or above -0.8.
Response: N

Request: Please check the record G44U C102G and state if its polymerase ribozyme fitness (log ratio) is at or above -0.8.
Response: N

Request: Please check the record C72A C82A U87A and state if its polymerase ribozyme fitness (log ratio) is at or above -0.8.
Response: N

Request: Please check the record A18C G63A U78G and state if its polymerase ribozyme fitness (log ratio) is at or above -0.8.
Response: N

Request: Please check the record U87A C115A and state if its polymerase ribozyme fitness (log ratio) is at or above -0.8.
Response: Y

Request: Please check the record U21A C72A U125G and state if its polymerase ribozyme fitness (log ratio) is at or above -0.8.
Response: Y

Request: Please check the record A111C U131C and state if its polymerase ribozyme fitness (log ratio) is at or above -0.8.
Response: Y

Request: Please check the record U9G C13U C73U A119G and state if its polymerase ribozyme fitness (log ratio) is at or above -0.8.
Response: Y

Request: Please check the record A50U C73A C76G U112A and state if its polymerase ribozyme fitness (log ratio) is at or above -0.8.
Response: N

Request: Please check the record U33A C56G G69U and state if its polymerase ribozyme fitness (log ratio) is at or above -0.8.
Response: N

Request: Please check the record C8A C12G G61C C123A and state if its polymerase ribozyme fitness (log ratio) is at or above -0.8.
Response: Y

Request: Please check the record C79U C124G and state if its polymerase ribozyme fitness (log ratio) is at or above -0.8.
Response: Y

Request: Please check the record A29G U132C and state if its polymerase ribozyme fitness (log ratio) is at or above -0.8.
Response: N

Request: Please check the record U59A A74C C82A G93C and state if its polymerase ribozyme fitness (log ratio) is at or above -0.8.
Response: N

Request: Please check the record C3U G39U G47A G117A and state if its polymerase ribozyme fitness (log ratio) is at or above -0.8.
Response: N

Request: Please check the record A43U G47U C72U U92A C104G C114G and state if its polymerase ribozyme fitness (log ratio) is at or above -0.8.
Response: N

Request: Please check the record A5U A16C and state if its polymerase ribozyme fitness (log ratio) is at or above -0.8.
Response: N

Request: Please check the record C12A C13U G61U U106A and state if its polymerase ribozyme fitness (log ratio) is at or above -0.8.
Response: Y

Request: Please check the record G45U C104U C124A and state if its polymerase ribozyme fitness (log ratio) is at or above -0.8.
Response: N

Request: Please check the record A6C U81C U87G and state if its polymerase ribozyme fitness (log ratio) is at or above -0.8.
Response: Y

Request: Please check the record G35C C72U C99A C102U U116C U130G and state if its polymerase ribozyme fitness (log ratio) is at or above -0.8.
Response: N

Request: Please check the record G51U A68U U106G G110U C124A and state if its polymerase ribozyme fitness (log ratio) is at or above -0.8.
Response: N

Request: Please check the record A43G U133A and state if its polymerase ribozyme fitness (log ratio) is at or above -0.8.
Response: N

Request: Please check the record G63C A121C and state if its polymerase ribozyme fitness (log ratio) is at or above -0.8.
Response: Y

Request: Please check the record G10U C53G G61C A84U and state if its polymerase ribozyme fitness (log ratio) is at or above -0.8.
Response: N

Request: Please check the record G60U U130C and state if its polymerase ribozyme fitness (log ratio) is at or above -0.8.
Response: Y

Request: Please check the record C13U A43C A50U C73U C86U U96G A108U G117U and state if its polymerase ribozyme fitness (log ratio) is at or above -0.8.
Response: N

Request: Please check the record G63A U112A U125A and state if its polymerase ribozyme fitness (log ratio) is at or above -0.8.
Response: N

Request: Please check the record G63U U92G G93C C98G A121G and state if its polymerase ribozyme fitness (log ratio) is at or above -0.8.
Response: N

Request: Please check the record A43C C64U and state if its polymerase ribozyme fitness (log ratio) is at or above -0.8.
Response: N

Request: Please check the record G61U G110U and state if its polymerase ribozyme fitness (log ratio) is at or above -0.8.
Response: Y

Request: Please check the record C12U C94U U112C and state if its polymerase ribozyme fitness (log ratio) is at or above -0.8.
Response: Y

Request: Please check the record G120U G127C and state if its polymerase ribozyme fitness (log ratio) is at or above -0.8.
Response: Y

Request: Please check the record A27G U59C A68G C99U U112A and state if its polymerase ribozyme fitness (log ratio) is at or above -0.8.
Response: N

Request: Please check the record C13G G63U C123A and state if its polymerase ribozyme fitness (log ratio) is at or above -0.8.
Response: Y

Request: Please check the record C53U U112G and state if its polymerase ribozyme fitness (log ratio) is at or above -0.8.
Response: Y

Request: Please check the record C11U A46C and state if its polymerase ribozyme fitness (log ratio) is at or above -0.8.
Response: N

Request: Please check the record C79G U96A and state if its polymerase ribozyme fitness (log ratio) is at or above -0.8.
Response: N

Request: Please check the record G60C G107U and state if its polymerase ribozyme fitness (log ratio) is at or above -0.8.
Response: N

Request: Please check the record G71C C97U and state if its polymerase ribozyme fitness (log ratio) is at or above -0.8.
Response: N

Request: Please check the record U9A C11U A100U and state if its polymerase ribozyme fitness (log ratio) is at or above -0.8.
Response: Y

Request: Please check the record G42A A66U C79U and state if its polymerase ribozyme fitness (log ratio) is at or above -0.8.
Response: N

Request: Please check the record C62U U92G and state if its polymerase ribozyme fitness (log ratio) is at or above -0.8.
Response: N

Request: Please check the record C88U G93A A108G C115U A118U G135C and state if its polymerase ribozyme fitness (log ratio) is at or above -0.8.
Response: N

Request: Please check the record C11U C88U C104A A121G and state if its polymerase ribozyme fitness (log ratio) is at or above -0.8.
Response: Y

Request: Please check the record A18U G117U and state if its polymerase ribozyme fitness (log ratio) is at or above -0.8.
Response: N

Request: Please check the record C8G C11U C82A U112A and state if its polymerase ribozyme fitness (log ratio) is at or above -0.8.
Response: Y
